# Subject of test: bFGF(155) (basic fibroblast growth factor, FGF2) (Homo sapiens, UniProt P09038 SEQ:1-155)
# Sequence (P09038 134-288): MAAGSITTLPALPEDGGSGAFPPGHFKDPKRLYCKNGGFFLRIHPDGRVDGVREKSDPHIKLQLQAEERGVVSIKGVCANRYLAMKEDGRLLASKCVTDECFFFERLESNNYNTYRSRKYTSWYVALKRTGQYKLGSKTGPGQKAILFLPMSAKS
# Measurement notes: filter; 1xPBS, 2 mM MgCl2, 0.01% HSA, 1 mM DTT, 37 C; Table 7 gives a different KD of 5.3e-9 M; Table 2 prints CACCC where SEQ 70 has CAGCC
# Applied conditions: tags: expressed in E. coli; Bachem California lot SN 433; label: 5'-32P
Measurement label: Kd (pM)
Field: numeric (pM). Do not append units.

Exercise: Look up Kd for this binder: 06.50 (ssDNA, 5-bromo-2'-deoxyuridine (BrdU) substituted for T) DNA: GGGAGGACGATGCGGTGACGTAAGAGTGTAATCGATGCAGCCTGGCAGACGACGAGCGGGA
Solution: 560
